subject_of_test: P2Y purinoceptor 12 (Homo sapiens)
Sequence (Q9H244 whole entry): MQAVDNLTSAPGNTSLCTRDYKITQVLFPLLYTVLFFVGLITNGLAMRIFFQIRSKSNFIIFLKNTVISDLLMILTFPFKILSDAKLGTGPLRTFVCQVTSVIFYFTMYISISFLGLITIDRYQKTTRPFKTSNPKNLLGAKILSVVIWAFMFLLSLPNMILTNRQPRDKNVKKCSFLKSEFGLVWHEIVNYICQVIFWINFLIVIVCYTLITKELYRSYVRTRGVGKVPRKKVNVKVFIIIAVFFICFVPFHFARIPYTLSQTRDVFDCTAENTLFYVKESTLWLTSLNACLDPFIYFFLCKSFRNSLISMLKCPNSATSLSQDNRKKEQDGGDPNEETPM
experiment_notes: Ratio of compound IC50 to thienopyrimidine IC50 for P2Y12 receptor in human platelet rich plasma assessed as inhibition of ADP-induced platelet aggregation by light transmission aggregometry
reported_property: Ratio IC50
The answer should be a number; do not append a unit.

Examples from the recorded data:
Give Ratio IC50 for CCCCCOC(=O)N1CCN(C(=O)[C@H](CCC(=O)O)NC(=O)c2nc(-c3ccccc3)cc(N3CCN(CCOC)CC3)n2)CC1
1.6

Give Ratio IC50 for CCCCCOC(=O)N1CCN(C(=O)[C@H](CCC(=O)O)NC(=O)c2nc(-c3ccccc3)cc(N3CCC(COC)CC3)n2)CC1
1.4

Give Ratio IC50 for CCCCCOC(=O)N1CCN(C(=O)[C@H](CCC(=O)O)NC(=O)c2cc(N3CCN(C)CC3)nc(-c3ccccc3)n2)CC1
0.3

Give Ratio IC50 for CCCCOC(=O)N1CCN(C(=O)[C@H](CCC(=O)O)NC(=O)c2cc(OC3CCN(C(C)C)CC3)nc(-c3ccccc3)n2)CC1
0.8

Give Ratio IC50 for CCCCCOC(=O)N1CCN(C(=O)[C@H](CCC(=O)O)NC(=O)c2cc(N3CCOCC3)nc(-c3ccccc3)n2)CC1
2

Further cases:
Give Ratio IC50 for CCCCCOC(=O)N1CCN(C(=O)[C@H](CCC(=O)O)NC(=O)c2cc(N3CCC(N)CC3)nc(-c3ccccc3)n2)CC1
0.2

Give Ratio IC50 for CCCCCOC(=O)N1CCN(C(=O)[C@H](CCC(=O)O)NC(=O)c2cc(N3CCC(CNCC)CC3)nc(-c3ccccc3)n2)CC1
0.1

---

subject_of_test: P2Y purinoceptor 12 (Homo sapiens)
experiment_notes: Ratio of compound IC50 to AZD-6140 IC50 for P2Y12 receptor in human platelet rich plasma assessed as inhibition of ADP-induced platelet aggregation by light transmission aggregometry
reported_property: Ratio IC50
The answer should be a number; do not append a unit.

Give Ratio IC50 for CCCCCOC(=O)N1CCN(C(=O)[C@H](CCC(=O)O)NC(=O)c2nc(-c3ccccc3)cc(N3CCC(CNCC)CC3)n2)CC1
1.6

Give Ratio IC50 for CCCCCOC(=O)N1CCN(C(=O)[C@H](CCC(=O)O)NC(=O)c2nc(-c3ccccc3)cc(N3CCN(CC(=O)N(C)C)CC3)n2)CC1
3.5

Give Ratio IC50 for CCCCCOC(=O)N1CCN(C(=O)[C@H](CCC(=O)O)NC(=O)c2cc(N3CCC(C(=O)N4CCC4)CC3)nc(-c3ccccc3)n2)CC1
0.3

// next item, Ratio IC50 requested
Give Ratio IC50 for CCCCCOC(=O)N1CCN(C(=O)[C@H](CCC(=O)O)NC(=O)c2nc(-c3ccccc3)cc(N3CCC(N4CCOCC4)CC3)n2)CC1
3.9

---

subject_of_test: P2Y purinoceptor 12 (Homo sapiens)
experiment_notes: Binding affinity at human recombinant P2Y12 receptor expressed in CHO cells by radioligand binding assay
Below: a set of entries, each annotated with reported pKi.
Interpret pKi as the negative base-10 log of the concentration measured in mol/L.

Examples from the recorded data:
Give pKi for CCCCCOC(=O)N1CCN(C(=O)[C@H](CCC(=O)O)NC(=O)c2cc(N3CCNCC3)nc(-c3ccccc3)n2)CC1
8.70

Give pKi for CCCCCOC(=O)N1CCN(C(=O)[C@H](CCC(=O)O)NC(=O)c2nc(OCCCN3CCOCC3)cc(-c3ccccc3)n2)CC1
7.96

Give pKi for CCCCCOC(=O)N1CCN(C(=O)[C@H](CCC(=O)O)NC(=O)c2cc(N3CCC(C)CC3)nc(-c3ccccc3)n2)CC1
8.12

Give pKi for CCCCCOC(=O)N1CCN(C(=O)[C@H](CCC(=O)O)NC(=O)c2cc(N3CCOCC3)nc(-c3ccccc3)n2)CC1
9.00

Give pKi for CCCCCOC(=O)N1CCN(C(=O)[C@H](CCC(=O)O)NC(=O)c2cc(N3CCC(COC)CC3)nc(-c3ccccc3)n2)CC1
8.08

Further cases:
Give pKi for CCCCCOC(=O)N1CCN(C(=O)[C@H](CCC(=O)O)NC(=O)c2cc(N3CCC(CN)CC3)nc(-c3ccccc3)n2)CC1
8.52

Give pKi for CCCCOC(=O)N1CCN(C(=O)[C@H](CCC(=O)O)NC(=O)c2cc(N3CCC(N4CCCC4)CC3)nc(-c3ccccc3)n2)CC1
8.77

---

subject_of_test: P2Y purinoceptor 12 (Homo sapiens)
experiment_notes: Binding affinity at human recombinant P2Y12 receptor expressed in CHO cells by radioligand binding assay
Could you please mark 1 for values of Ki below 2 nM and -1 for values at or above it?

Ki under 2 nM? Item: CCCCCOC(=O)N1CCN(C(=O)[C@H](CCC(=O)O)NC(=O)c2cc(OCC3CCNCC3)nc(-c3ccccc3)n2)CC1
-1

Ki under 2 nM? Item: CCCCCOC(=O)N1CCN(C(=O)[C@H](CCC(=O)O)NC(=O)c2cc(N3CCC(N4CCCC4)CC3)nc(-c3ccccc3)n2)CC1
1

Ki under 2 nM? Item: CCCCCOC(=O)N1CCN(C(=O)[C@H](CCC(=O)O)NC(=O)c2cc(NC3CCN(C(C)C)CC3)nc(-c3ccccc3)n2)CC1
-1

Ki under 2 nM? Item: CCCCCOC(=O)N1CCN(C(=O)[C@H](CCC(=O)O)NC(=O)c2cc(N3CCC(N)CC3)nc(-c3ccccc3)n2)CC1
1

Ki under 2 nM? Item: CCCCOC(=O)N1CCN(C(=O)[C@H](CCC(=O)O)NC(=O)c2cc(N3CCC(C(=O)NCC)CC3)nc(-c3ccccc3)n2)CC1
1

Further cases:
Ki under 2 nM? Item: CCCCCOC(=O)N1CCN(C(=O)[C@H](CCC(=O)O)NC(=O)c2nc(-c3ccccc3)cc(N3CCNCC3)n2)CC1
-1

Ki under 2 nM? Item: CCCCCOC(=O)N1CCN(C(=O)[C@H](CCC(=O)O)NC(=O)c2nc(OCCN(CC)CC)cc(-c3ccccc3)n2)CC1
-1

Ki under 2 nM? Item: CCCCCOC(=O)N1CCN(C(=O)[C@H](CCC(=O)O)NC(=O)c2cc(N3CCC(CCN(C)C)CC3)nc(-c3ccccc3)n2)CC1
-1

Ki under 2 nM? Item: CCCCCOC(=O)N1CCN(C(=O)[C@H](CCC(=O)O)NC(=O)c2cc(N3CCC(C(=O)N4CCC4)CC3)nc(-c3ccccc3)n2)CC1
1

Ki under 2 nM? Item: CCCCCOC(=O)N1CCN(C(=O)[C@H](CCC(=O)O)NC(=O)c2cc(N3CCC(C(=O)NCC)CC3)nc(-c3ccccc3)n2)CC1
1

Ki under 2 nM? Item: CCCCCOC(=O)N1CCN(C(=O)[C@H](CCC(=O)O)NC(=O)c2cc(N3CCC(CC(=O)N4CCCC4)CC3)nc(-c3ccccc3)n2)CC1
1

Ki under 2 nM? Item: CCCCCOC(=O)N1CCN(C(=O)[C@H](CCC(=O)O)NC(=O)c2nc(-c3ccccc3)cc(N3CCC(N)CC3)n2)CC1
-1

Ki under 2 nM? Item: CCCCCOC(=O)N1CCN(C(=O)[C@H](CCC(=O)O)NC(=O)c2nc(NCCCN(C)C)cc(-c3ccccc3)n2)CC1
-1

Ki under 2 nM? Item: CCCCCOC(=O)N1CCN(C(=O)[C@H](CCC(=O)O)NC(=O)c2nc(-c3ccccc3)cc(N3CCC(CNC)CC3)n2)CC1
-1

---

experiment_notes: Effective half life in Sprague-Dawley rat at 2 mg/kg, iv and 5 mg/kg, po
Type: ADME, organism-based
settings: in vivo
Below: a set of entries, each annotated with reported half-life.
Numbers only; they are read as min.

Examples from the recorded data:
Give half-life for CCCCCOC(=O)N1CCN(C(=O)[C@H](CCC(=O)O)NC(=O)c2cc(N3CCC(C(=O)NCC)CC3)nc(-c3ccccc3)n2)CC1
18

Give half-life for CCCCCOC(=O)N1CCN(C(=O)[C@H](CCC(=O)O)NC(=O)c2cc(N3CCC(CNC)CC3)nc(-c3ccccc3)n2)CC1
42

Give half-life for CCCCCOC(=O)N1CCN(C(=O)[C@H](CCC(=O)O)NC(=O)c2cc(N3CCC(C(=O)N(CC)CC)CC3)nc(-c3ccccc3)n2)CC1
24

Give half-life for CCCCCOC(=O)N1CCN(C(=O)[C@H](CCC(=O)O)NC(=O)c2nc(-c3ccccc3)cc(N3CCC(CN)CC3)n2)CC1
12

Give half-life for CCCCCOC(=O)N1CCN(C(=O)[C@H](CCC(=O)O)NC(=O)c2cc(N3CCC(OCCO)CC3)nc(-c3ccccc3)n2)CC1
30

Further cases:
Give half-life for CCCCCOC(=O)N1CCN(C(=O)[C@H](CCC(=O)O)NC(=O)c2cc(N3CCC(C(=O)N4CCCC4)CC3)nc(-c3ccccc3)n2)CC1
48

Give half-life for CCCCCOC(=O)N1CCN(C(=O)[C@H](CCC(=O)O)NC(=O)c2nc(-c3ccccc3)cc(N3CCC(COC)CC3)n2)CC1
18

Give half-life for CCCCCOC(=O)N1CCN(C(=O)[C@H](CCC(=O)O)NC(=O)c2cc(N3CCC(CN4CCCC4)CC3)nc(-c3ccccc3)n2)CC1
18

Give half-life for CCCCOC(=O)N1CCN(C(=O)[C@H](CCC(=O)O)NC(=O)c2cc(N3CCC(C(=O)NCC)CC3)nc(-c3ccccc3)n2)CC1
6

Give half-life for CCCCCOC(=O)N1CCN(C(=O)[C@H](CCC(=O)O)NC(=O)c2cc(N3CCC(COC)CC3)nc(-c3ccccc3)n2)CC1
54

Give half-life for CCCCCOC(=O)N1CCN(C(=O)[C@H](CCC(=O)O)NC(=O)c2cc(N3CCC(C(N)=O)CC3)nc(-c3ccccc3)n2)CC1
24

Give half-life for CCCCCOC(=O)N1CCN(C(=O)[C@H](CCC(=O)O)NC(=O)c2cc(N3CCC(CN)CC3)nc(-c3ccccc3)n2)CC1
102
